Target: Cytochrome P450 1A2 (Homo sapiens)
Experiment: Cytochrome panel assay with activity outcomes
Conditions: recombinant CYP, pro-luciferin dealkylation, luminescence, p450-cyp1a2; series mostly up to 57.1 µM
The campaign covered roughly 16,000 compounds. About 5,700 (36%) were called active. Inconclusive results (about 24%) are left out. Calls come from the whole dose curve; as a rule, active = well fitted curve in the direction sought with a large enough effect; inconclusive = small, poorly fitted or top-dose-only effect, or effect the other way; inactive = no such curve, though single readings can be large or run the other way. Some of the results follow.
Labels: active, inactive

compound="CCCNC(=O)CC(NS(=O)(=O)c1ccc(Cl)cc1)c1ccco1 (stereo not given)" assigned_label=inactive
compound=COc1cccc(C(=O)N(C)c2nnc(-c3ccncc3)s2)c1 assigned_label=active
compound=COc1ccc2[nH]cc(CCNc3ncncc3-c3ccccc3C)c2c1 assigned_label=active
compound=CC(=O)Nc1ccc(S(=O)(=O)N2CCN(c3nc(NC4CCCC4)c4ccccc4n3)CC2)cc1 assigned_label=inactive
compound=COC(=O)[C@@]1(Cc2ccc(OC)cc2)[C@H]2c3cc(C(=O)N4CCCC4)n(Cc4cc(F)cc5c4OCOC5)c3C[C@H]2CN1C(=O)c1ccccc1 assigned_label=inactive
compound=Cc1noc(C)c1C(=O)N1CCC[C@@]2(CCN(c3ncccn3)C2)C1 assigned_label=inactive
compound=CCOC(=O)c1cc(-c2ccccc2)sc1NC(=O)c1ccc(OC)cc1 assigned_label=active
compound=Cc1ccccc1S(=O)(=O)Oc1ccccc1C(=O)Oc1ccccc1 assigned_label=active
compound="CCCC[C@@H]1C[C@H]1C(NC(=O)c1ccco1)c1ccc(Cl)cc1 (stereo not given in full)" assigned_label=active
compound=O=C(N/N=C/c1c(Nc2cccc(C(F)(F)F)c2)nc2ccccn2c1=O)c1ccccc1 assigned_label=active
compound=Cc1c2cnccc2c(C)c2c1c1ccccc1n2CCOC(=O)c1ccccc1 assigned_label=active
compound="COc1ccc(N2C(=O)CCC(C(=O)O)C2c2ccc(F)cc2)cc1 (stereo not given)" assigned_label=inactive
compound="CCCC[C@@H]1C[C@H]1C(NC(=O)c1ccco1)c1ccccc1 (stereo not given in full)" assigned_label=active
compound=N#Cc1ccc(-c2ccccc2)nc1SCC(=O)c1cccc(Cl)c1 assigned_label=active
compound=CN1CCCC2(CCN(C(=O)c3cnccn3)CC2)C1 assigned_label=inactive
compound=Cc1ccccc1OCCNC(=O)c1ccccc1Sc1ccccc1C#N assigned_label=active
compound=CN(C)/C=C/C(=O)c1ccc(Cl)cc1 assigned_label=active
compound=CCn1cc(C(=O)NCC(=O)OC)c2cc(OC)c(OC)cc2c1=O assigned_label=inactive
compound=Cc1ccccc1OCC(=O)Nc1sc(C(=O)Nc2cccc(C)c2C)c(C)c1C#N assigned_label=inactive
compound=Fc1cc2nc(-c3ccncc3)[nH]c2cc1F assigned_label=active
compound=Cn1ncc2c(NCCc3ccccc3)nc(Cl)nc21 assigned_label=active
compound=CN1CCN([C@@H](c2ccccc2)c2ccc(Cl)cc2)CC1 assigned_label=inactive
compound="CCCC[C@@H]1C[C@H]1C(NC(=O)Cc1ccccc1)c1ccc(-c2ccccc2)cc1 (stereo not given in full)" assigned_label=inactive
compound=Cc1ccc(C(=O)N/N=C/c2sc(=O)n(Cc3cccc(C(=O)O)c3)c2Cl)cc1 assigned_label=inactive
compound=O=C(Nc1ccnc(-c2cccnc2)n1)c1ccccc1Cl assigned_label=active
compound="COC(=O)c1c(NC(=O)CC2Nc3ccccc3NC2=O)sc(C)c1C (stereo not given)" assigned_label=active
compound=CN=C1S/C(=C\c2ccc(Sc3ccc(Cl)cc3)o2)C(=O)N1C assigned_label=active
compound=O=[N+]([O-])C(/C=C(\Cl)[N+](=O)[O-])=C1N(Cc2ccc(Cl)nc2)CCN1Cc1ccc(Cl)nc1 assigned_label=inactive
compound="CCOc1ccc(N=C2NC(=O)C(CC(=O)O)S2)cc1 (stereo not given)" assigned_label=inactive
compound=CN(C)CCCNC(=O)c1cc2c3ccccc3n(C)c2s1 assigned_label=active
compound=CN(C)/C=C/C(=O)c1ccc(F)cc1 assigned_label=active
compound=Cc1ccccc1-c1nc(NC2CC2)c2ccccc2n1 assigned_label=active
compound=O=C(Nc1ccnc(-c2cccnc2)n1)c1cccc(Cl)c1Cl assigned_label=active
compound="CCCCOc1ccccc1C1CC(=O)NC2=C1C(=O)CCC2 (stereo not given)" assigned_label=inactive
compound="Cc1ccc(N2C(=O)CC(c3ccsc3)C3=C2CC(C)(C)CC3=O)cc1 (stereo not given)" assigned_label=inactive
compound="Cc1cccc(C)c1NC(=O)C(c1ccc(Cl)cc1Cl)N1CCCCC1 (stereo not given)" assigned_label=inactive
compound=CN1CCN(C2=Cc3ccccc3Oc3ccc(Cl)cc32)CC1 assigned_label=active
compound=CCOC(=O)c1cc(-c2ccccc2)sc1NC(=O)C(C)(C)C assigned_label=inactive
compound=O=C(Oc1ccccc1)N1CCC2(CC1)CCN(c1ccccc1)CC2 assigned_label=inactive
compound=CNc1ccnc(-c2ccccc2C)n1 assigned_label=active
compound=Cc1ccccc1C(=O)Oc1ccc(Br)cc1C(=S)N1CCCC1 assigned_label=inactive
compound=COCc1nnc(NC(=O)CCN2C(=O)c3ccccc3C2=O)s1 assigned_label=inactive
compound=COc1cccc(/C=c2/s/c(=C(\C#N)C(=O)N3CCOCC3)n(-c3ccccc3)c2=O)c1 assigned_label=inactive
compound="COc1ccc(C(C(=O)Nc2ccc(F)cc2)N(C(=O)Cn2nnc3ccccc32)C2CC2)cc1 (stereo not given)" assigned_label=inactive
compound=O=C(Nc1cccnc1)c1ccc2snnc2c1 assigned_label=active
